target: Neu5Ac(a2-8)Neu5Ac; assay: glycan array binding signal (z-score within array); higher = stronger binding; conditions: glycan notation: IUPAC condensed, linker removed
Only a selection was taken, and the strongest signals are over-represented in it overall.
attribute-measured: glycan array binding signal (z-score)
Numbers only.

Please review the entries below; each comes with its answer.
- binder: "PpFlo1 (Pichia pastoris) (protein) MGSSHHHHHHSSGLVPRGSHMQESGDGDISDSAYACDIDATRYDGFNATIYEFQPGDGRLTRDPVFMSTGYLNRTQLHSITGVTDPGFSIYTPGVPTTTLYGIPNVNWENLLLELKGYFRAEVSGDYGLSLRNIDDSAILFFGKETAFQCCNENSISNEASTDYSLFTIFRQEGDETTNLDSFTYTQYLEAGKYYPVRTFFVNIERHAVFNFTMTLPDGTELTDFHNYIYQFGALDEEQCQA"
  attribute-measured: "glycan array binding signal (z-score)"
  observed-value: 0.146
- binder: "Malectin (Xenopus laevis), Q6INX3 (protein) SGLADKVIWAVNAGGESHVDVHGIHYRKDPLEGRVGRASDYGMKLPILRSNPEDQVLYQTERYNEDSFGYDIPIKEEGEYVLVLKFAEVYFAQSQQKVFDVRVNGHTVVKDLDIFDRVGHSTAHDEIIPISIKKGKLSVQGEVSTFTGKLSVEFVKGYYDNPKVCALFIMKGTADDVPMLQPHPGLE"
  attribute-measured: "glycan array binding signal (z-score)"
  observed-value: -0.073

Proceeding to the next binder to report its glycan array binding signal (z-score).
// glycan array binding signal (z-score) lookup, key: Mermaid3 (Stilbonema majum) (protein) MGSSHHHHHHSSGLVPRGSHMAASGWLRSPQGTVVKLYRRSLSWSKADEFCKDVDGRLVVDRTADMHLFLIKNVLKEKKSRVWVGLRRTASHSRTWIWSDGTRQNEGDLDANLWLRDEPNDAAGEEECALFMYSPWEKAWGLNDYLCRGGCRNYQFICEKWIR
-0.57

Data provenance is the supplement of paper PMC8728848.
